experiment: Cytotoxicity against human osteoblasts assessed as cell viability at 4.63 ug/ml after 2 hrs; assay type: cell-based, Osteoblast; settings: read-out: Activity
ATTRIBUTE MEASURED: viability at 2 h, 4.63 ug/ml

>>> print(df.to_string())
                                   molecule  result
0  CCC(C)NCC(O)Cn1c2ccc(Cl)cc2c2cc(Cl)ccc21 (stereo unspecified)   > 80%

###

assay: Cytotoxicity against human mesenchymal stem cells assessed as cell viability at 4.63 ug/ml after 2 hrs; format: cell-based; details: read-out: Activity
ATTRIBUTE MEASURED: viability at 2 h, 4.63 ug/ml

>>> df
                                   molecule  result
0  CCC(C)NCC(O)Cn1c2ccc(Cl)cc2c2cc(Cl)ccc21 (stereo unspecified)   > 80%
